The entries below come with measured soluble fraction (log2) values attached.
- Measurement description: soluble fraction after stress (log2 fold change); higher = more stays soluble; pooled small domains, quantitative proteomics
- Condition: stress: 50 degC
Give a plain numeric answer without units written out.

>>> print(df.to_string())
                            record_sequence             readout_kind  numeric_value
0  HMNVNEIREMYPEGTQIVLTEMRGENQMPYGLKGTVKFVDDAGQIHMKWENGSSLALNINEDTFEKVE  soluble fraction (log2)          0.147

Request: Name the recorded soluble fraction (log2) for HMIMMTLGEKIRSIRKAKGMTQQELAEKLNTTKQTIGKYEKGIVTNLPLFRINELARALSTTPAYLTGW .
Result: -1.41

Request: Name the recorded soluble fraction (log2) for HMNIDGLIGKKALVTADIDNVNSKGQIKINGLEWTARSVDDEPIPMGTEVEITAISGVKAIVRKG .
Result: 0.168

Request: Name the recorded soluble fraction (log2) for HMQADTATITGNGVNMRSGPGTNYQIIDTIPKGTVAEVLSQQDGWVKIYSARISGWVSASYVEIKQT .
Result: -0.356

FYI, the data here is from the domain aggregation screens of Martell et al. (2025).
